molecular target: CDK2 (Homo sapiens, UniProt P24941); construct: High-Throughput Measurement of Cellular Endogenous CDK2; endogenous in cells; test: Inhibition of CDK2: phospho-Rb (S807/811) HTRF measurement in OVCAR3 cells, 24 h; conditions: 24 h compound treatment, read-out: pRB_OVCAR3_24h
pIC50: −log10 of the molar value.
assay_endpoint: pIC50

compound="O=C1CCC(N2Cc3cc(N4CCN(Cc5cccc(S(=O)(=O)N6CCC(Nc7ncc(OC(F)F)cn7)CC6)c5)CC4)c(F)cc3C2=O)C(=O)N1 (stereo not shown) [Example 43]" assay_result="6.30 to 7.00"

// pIC50 value for Cn1c(=O)n(C2CCC(=O)NC2=O)c2cccc(C3CCN(CC4CCN(c5cccc(S(=O)(=O)N6CCC(Nc7ncc(OC(F)F)cn7)CC6)c5)CC4)CC3)c21 (stereo not shown) : 7.00 to 9.00

// pIC50 value for `Cn1nc(N2CCC(=O)NC2=O)c2ccc(C3CCN(CCOc4cccc(S(=O)(=O)N5CCC(Nc6ncc(C(F)(F)F)cn6)CC5)c4)CC3)cc21` : 7.00 to 9.00
